// data source = PubChem BioAssay

EXPERIMENTAL PROTOCOL: osmotic lysis modulators in infected erythrocytes, primary screen, PSAC antagonist project, cell-based, P. falciparum Indochina, OD700, 3 h (AID 1156)
RUN PARAMETERS: higher = more signal, called active from +8 up or from −8 down
Could you please report measured z-score for the items listed next?
Give bare numbers.

Field: z-score. Fill in for each record below.
1. COc1ccc(CC[C@H](O)c2cccc(OCC(=O)OC(C)(C)C)c2)cc1
2. CN(C)C(=O)[C@]1(Cc2ccccc2)N=C(c2ccc(OCCCO)cc2)O[C@@H]1c1ccccc1
3. C=CC[C@]1(C(=O)NCc2ccccc2)COC(c2ccc(OCCCO)cc2)=N1
4. CC=CC(O)C1C=CC2C(=O)N(C)C(=O)C2N1NC(=O)OC(C)(C)C (stereo not given)
5. CC(C)CNC(=O)[C@@]1(C)c2ccccc2C(=O)N(Cc2cc(F)cc(C(F)(F)F)c2)[C@H]1c1ccc(CO)cc1
6. CCCCC=C[C@@H](NC(=O)c1ccc(C(F)(F)F)cc1)c1ccccc1

[A]
1: 0.597; 2: -0.0356; 3: 1.44; 4: -0.0501; 5: 0.33; 6: -0.427

Field: z-score. Fill in for each record below.
1. CCCCCN1CC=CC23O[C@@H]4C=CCOC(=O)[C@@H]4[C@H]2C(=O)N(CCCCCO)[C@@H]3C1=O (stereo not given in full)
2. O=C1C2C=CC(C(O)c3cccc(O)c3)N(Nc3ccccc3F)C2C(=O)N1c1ccccc1 (stereo not given)
3. CC(C)C[C@@H]1NC(=O)C([C@@H](C)OCc2ccccc2)NC(=O)[C@@]23C(=O)N[C@@H](Cc4ccccc4)C2[C@H](C)[C@@]2(C)O[C@H]2C3/C=C/CC/C=C/CNC1=O (stereo not given in full)

[A]
1. 1.45
2. 0.868
3. -0.0722

Field: z-score. Fill in for each record below.
1. CN(C)CCCNC(=O)[C@@H]1c2ccccc2C(=O)N(C2Cc3ccccc3C2)[C@H]1c1ccc(CO)cc1
2. C=C(/C(=C/C[C@H](OC(=O)c1ccncc1)c1ccccc1OCCO)c1cc(C(=O)OC)ccc1OC)C(C)C
3. C/C=C/CN(C(=O)C#Cc1ccccc1)[C@H](CO[Si](C)(C)C(C)(C)C)c1ccccc1
4. C=CC[C@@]1(C(=O)N(C)C)N=C(c2ccc(OCCCO)cc2)O[C@@H]1c1ccccc1
5. COC(=O)[C@@]1(Cc2ccc(OC)cc2)[C@H]2c3cc(C(=O)N4CCCC4)n(CCc4ccc(OC)c(Br)c4)c3C[C@H]2CN1C(=O)c1ccccc1
6. COc1ccc(CCNC(=O)[C@@]2(Sc3ccc(C)cc3)CC(=O)N(Cc3cc(C(F)(F)F)cc(C(F)(F)F)c3)[C@@H]2c2ccc(CO)cc2)cc1
7. CC(C)c1ccc(NN2C(C(O)C(C)C)C=CC3C(=O)N(c4ccccc4)C(=O)C32)cc1 (stereo not given)

[A]
1.79
2.19
-0.509
0.549
-0.0758
0.0927
0.42

Field: z-score. Fill in for each record below.
1. COc1ccc([Si](C)(C)[C@@H]2[C@@H](CC(=O)N(CCO)Cc3ccccc3)O[C@]3(C(=O)N(Cc4ccc(N5CCC5=O)cc4)c4ccccc43)[C@H]2C)cc1
2. C=CCC(OC(C)=O)[C@@H]1[C@@H](N(Cc2ccc(-c3cccc(C(F)(F)F)c3)o2)C(=O)Cc2ccc(OC)cc2)c2cc(OCCCO)ccc2N1C(=O)c1ccc2ccccc2n1 (stereo not given in full)
3. CCCCC(=C=CC[C@H](O)c1ccc(OCCO)cc1)C[C@H](O)c1ccccn1
4. COC(=O)[C@@]1(Cc2ccc(OC)cc2)[C@@H]2[C@@H](CC(=O)[C@H]2CC(=O)C(=O)N2CCCC2)CN1C(=O)c1ccccc1
5. C=CC[C@]1(C(=O)NCCCOC)N=C(c2ccc(OCCCO)cc2)O[C@H]1c1ccccc1

[A]
1. -0.709
2. 0.959
3. 1.11
4. 1.07
5. 0.932

Field: z-score. Fill in for each record below.
1. COC(=O)[C@@H]1N=C(c2ccc(OCCCO)cc2)O[C@@H]1c1ccccc1CN=[N+]=[N-]
2. O=C1OCCC=C[C@H]2OC34C=CCN(c5ccc(Cl)cc5)C(=O)[C@H]3N(CCO)C(=O)[C@@H]4C12 (stereo not given in full)
3. CN1C(=O)C2C(C1=O)C1C=C(c3ccc(CO)cc3)C2C(c2cccs2)N1C (stereo not given)
4. C=C(CC1([C@@H](NP(=O)(c2ccccc2)c2ccccc2)[C@H]2C[C@@H]2CCN(C(=O)OCC)S(=O)(=O)c2ccc(C)cc2)CC1)c1ccccc1
5. COCCOC(=O)N1C(=O)[C@@]2(c3ccccc31)[C@H](C(=O)N1CCCCCCC1)[C@H]1C(=O)O[C@H](c3ccccc3)[C@H](c3ccccc3)N1[C@@H]2c1ccc(O)cc1
6. CC1CC/C=C\[C@H]2OC34C=CCN(c5ccc(Cl)cc5)C(=O)[C@H]3N(CCCO)C(=O)[C@]4(C)C2C(=O)O1 (stereo not given in full)

[A]
1. -0.5
2. 0.766
3. 1.43
4. 2.36
5. 0.367
6. -0.338

Field: z-score. Fill in for each record below.
1. COC(=O)[C@@]1(Cc2ccc(F)cc2)[C@H]2c3cc(C(=O)N(C)C)n(CCn4cc([N+](=O)[O-])nc4C)c3C[C@H]2CN1C(=O)c1ccccc1
2. CN(C)CCCC[C@@H]1NC(=O)[C@@H]2C[C@H](C(=O)NCc3ccc(F)cc3)[C@H](c3ccc(O)cc3)N2C1=O

[A]
0.0718
-1.62

[Q] I have this compound here, "COCCOC(=O)N1C(=O)[C@@]2(c3cc(C#CC4(O)CCCCCC4)ccc31)[C@H](C(=O)N1CCc3cc(OC)c(OC)cc3C1)[C@H]1C(=O)O[C@H](c3ccccc3)[C@H](c3ccccc3)N1[C@@H]2c1ccc(O)cc1" , and I need its recorded z-score.
[A] 1.89

---

Could you please report measured composite z-score for the items listed next?
TGT: Torsin-1A (Homo sapiens)
EXPERIMENTAL PROTOCOL: torsin A binders from cell lysate, primary screen, small-molecule microarray, wild-type, 635/667 nm (AID 1149)
RUN PARAMETERS: COS7 hTOR1A-WT lysate, 635 nm fluorescence, higher = more signal
Answers are plain numbers.

INSERT INTO results (molecule, data_value) VALUES
  ('C=CCC(OC(C)=O)[C@@H]1[C@@H](N(Cc2cc3ccccc3o2)C(=O)c2ccc(-c3ccccc3)cc2)c2cc(OCCCO)ccc2N1C(=O)c1ccc2ccccc2n1 (stereo partly drawn)', 0.179);

Field: composite z-score. Fill in for each record below.
1. O=C1N(CCS(=O)(=O)c2ccccc2)c2ccccc2[C@@H]2OC(c3ccc(OCCCO)cc3)=N[C@]12CCS(=O)(=O)c1ccccc1
2. CC#CCO[Si](C#CCCCCCC)(C(C)C)C(C)C

[A]
1: 0.741; 2: -1.46

Field: composite z-score. Fill in for each record below.
1. COC(=O)[C@@]1(Cc2ccccc2)[C@H]2c3cc(C(=O)N4CCCC4)n(Cc4ccc(C(F)(F)F)nc4)c3C[C@H]2CN1C(=O)c1ccccc1
2. Cc1ccc(S[C@]2(C(=O)NCCCN(C)C)CC(=O)N(Cc3ccccc3Cl)[C@@H]2c2ccc(CO)cc2I)cc1
3. CC(C)CNC(=O)[C@@]1(C)c2ccccc2C(=O)N(Cc2cc(F)cc(C(F)(F)F)c2)[C@H]1c1ccc(CO)cc1
4. CN(C)C(=O)[C@]1(Cc2ccccc2)N=C(c2ccc(OCCCO)cc2)O[C@@H]1c1ccccc1
5. COC(=O)[C@@]1(CCS(=O)(=O)c2ccccc2)N=C(c2ccc(OCCCO)cc2)O[C@H]1c1ccccc1N=[N+]=[N-]

[A]
1.03
-0.601
0.194
0.193
1.83

Field: composite z-score. Fill in for each record below.
1. COCCOC(=O)N1C(=O)[C@@]2(c3ccccc31)[C@H](c1ccc(OCCO)cc1)N1[C@H](c3ccccc3)[C@H](c3ccccc3)OC(=O)[C@H]1[C@@H]2C(=O)N1CCN(c2ncccn2)CC1
2. COC(=O)[C@@]1(Cc2ccc(F)cc2)[C@H]2c3cc(C(=O)N(C)C)n(CCn4cc([N+](=O)[O-])nc4C)c3C[C@H]2CN1C(=O)c1ccccc1
3. CC(C)N1CC=CC23O[C@@H]4C=CCCOC(=O)C4[C@H]2C(=O)N(CCCCCO)[C@@H]3C1=O (stereo partly drawn)
4. CC(C)C(=C=CC[C@@H](O)c1ccc(OCCO)cc1)CCO
5. C[C@@H](OCc1ccccc1)C1NC(=O)[C@@]23C(=O)N[C@@H](Cc4ccccc4)C2[C@H](C)[C@@]2(C)O[C@H]2C3/C=C/C/C=C\CNC(=O)[C@H](Cc2ccccc2)NC1=O (stereo partly drawn)

[A]
[0.819, -0.0611, -1.35, -0.0298, -0.258]
